Target: T1, CD70 on cells (CHO-CD70, JVM-3, U266, Raji, THP-1, T cells) (human, UniProt P32970 1-193)
T1 construct: whole, on cells; also called cell-surface CD70
T1 sequence (looked up): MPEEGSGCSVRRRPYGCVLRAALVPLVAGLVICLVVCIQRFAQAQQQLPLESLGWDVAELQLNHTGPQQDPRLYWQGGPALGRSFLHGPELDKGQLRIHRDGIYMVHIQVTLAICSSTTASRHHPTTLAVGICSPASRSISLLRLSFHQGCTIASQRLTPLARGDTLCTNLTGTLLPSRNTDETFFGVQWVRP
Assay: 1.25 µg/mL scFv on CHO-CD70 cells
Rule: cell binding below 400000 gives YES, anything at or above gives NO.

Illustrative cases are given below, each with its answer.
binder	classification
54-TC7-V-D10 (scFv, His-tagged) scFv: QVQLQQWGAGLLKPSETLSLTCAVYGGSFSGYYWSWIRQPPGKGLEWIGEINHSGSTNYNPSLKSRVTISVDTSKNQFSLKLSSVTAADTAVYYCARGGYRSYWYFDLWGRGTLVTVSSGGSGGSGGSGGSQSALTQPASVSGSPGQSITISCTGTSSDVGGYNSVSWYQHHPGKAPKLMIYDVSDRPSGVSDRFSGSKSGNTASLTISGLQAEDEADYYCSSYAGSNNVVFGGGTKVTVL	YES
40-TC7-VI-F11 (scFv, His-tagged) scFv: EVQLVESGGGVVQPGRSLRLSCAASGFTFSSYAMHWVRQAPGKGLEWVAVISYDGSNKYYADSVKGRFTISRDNSKNTLYLQMNSLRAEDTAVYYCARDGYGFDYWGQGTLVTVSSGGSGGSGGSGGSSYELTQSPSVSVAPGQTARITCGGNNIGSKSVHWYQQKPGQAPVLVVYDDSDRPSGIPERFSGSNSGNTATLTISRVEAGDEADYYCQVWDSSTPYVFGTGTKLTVL	YES
59-TC4-VII-F02 (scFv, His-tagged) scFv: QLQLQESGPGLVKPSGTLSLTCAVSGGSISSSNWWSWVRQPPGKGLEWIGEIYHSGSTNYNPSLKSRVTISVDKSKNQFSLKLSSVTAADTAVYYCAGPGPDPNDAFDIWGQGTMVTVSSGGSGGSGGSGGSSSELTQDPAVSVALGQTVRITCQGDSLRSYYASWYQQLPGTAPKLLIYQDSKRPSGIPERFSGSNSGNTATLTISGTQAMDEADYYCQAWDSSTAVFGGGTKLTVL	NO
13-TC7-V-H10 (scFv, His-tagged) scFv: QVQLQQWGAGLLKPSETLSLTCAVYGGSFSGYYWSWIRQPPGKGLEWIGEINHSGSTNYNPSLKSRVTISVDTSKNQFSLKLSSVTAADTAVYYCARSRRPYWYFDLWGRGTLVTVSSGGSGGSGGSGGSQSALTQPASVSGSPGQSITISCTGTSSDVGGYNSVSWYRQHPGKAPKLMIYDVTNRPSGVSNRFSGSKSGNTASLTISGLQAEDEADYYCSSSSISATWVFGGGTKLTVL	NO
16-TC4-I-C11 (scFv, His-tagged) scFv: QVQLVQSGAEVKKPGSSVKVSCKASGGTFSSYAISWVRQAPGQGLEWMGWISAYNGNTNYAQKLQGRVTMTTDTSTSTAYMELRSLRSDDTAVYYCARVTPPGWLGNMDVWGKGTTVTVSSGGSGGSGGSGGSSYELMQSPSVSVAPGQTARITCGGRDIGSKSVHWYQQKPGQAPVLVVYDDSDRPSGIPERLSGSNFGNEATLTISRVEAGDEGDYFCQVWDSSTDVVFGGGTKVTVL	NO

Now look at this one.
Query: Here's an entry: 47-TC7-III-D10 (scFv, His-tagged) scFv: QVQLVQSGAEVKKPGASVKVSCKASGYTFTSYGISWVRQAPGQGLEWMGWISAYNGNTNYAQKLQGRVTMTTDTSTSTAYMELRSLRSDDTAVYYCARDSSSWYYYYGMDVWGQGTTVTVSSGGSGGSGGSGGSSYELTQPPSVSVSPGQTARISCSGDALPNQYAYWYQQKPGQAPVLVIYQDSERPSGIPERFSGSSSGTTVTLTISGVQAEDEADYYCQSADTYGTSWVFGGGTKLTVL . Is its cell binding below 400000?
Response: YES

Where do these numbers come from? They come from patent US20240252641A1.
